# credit: the MegaScale stability set (Tsuboyama et al. 2023)

Listed here: items and their measured folding stability dG.
B1: HEEH_KT_rd6_3632 (parent)
chain: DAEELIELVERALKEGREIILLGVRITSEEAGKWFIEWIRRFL

variants of: B1; experiment: folding stability dG (cDNA display proteolysis); higher = more stable; settings: PBS, room temperature

Mutation key	folding stability dG (kcal/mol)
A2M	3.92
E30V	3.94
E29P	4.06
I20S	3.18
A12L	3.74
W38N	2.8
E10F	3.69
A31N	3.49
A2D	3.4
R25S	3.51
I6L	3.62
F42A	3.21
L43P	2.62
L21A	3.37
R40Q	3.32
R17F	3.63
L5T	3.08
R11Q	3.54
R40W	3.85
T27R	3.52
R17Q	3.27
K14V	3.5
I36G	2.92
E15P	3.21
E18Q	3.74
L8K	3.46
I36E	2.97
F42H	3.45
E30K	3.65
K14G	3.5
R17W	3.75
L43T	3.24
G32T	3.64
V9E	2.87
L21S	3.12
V9L	3.59
L13D	2.97
E18F	3.87
L21P	2.6
A2P	3.65
V24G	3.22
R41W	4.14
W38K	2.86
F35N	2.53
G23N	3.31
G32S	3.39
